This listing pairs compounds with measured Potency.
System: NIH3T3
method: Cytotoxic Profiling of Annotated Libraries Using Quantitative High-Throughput Screening (AID 1296008); further: potency means the concentration at half of the fitted maximal effect; nearly all actives have a fitted effect of over 60% in size
condition-notes: Five cell lines viability, CellTiter-Glo ATP luminescence, 48-72 h
Records with an inconclusive call do not appear. Active and inactive are the calls of the source. The call rests on the fitted dose curve; in most records, active means well fitted inhibition curve with a large enough effect; inconclusive means small, poorly fitted or top-dose-only effect; inactive means flat fitted curve, though single readings scatter.

                                   compound   observed_result
0  COc1cc(N2CCN(C(C)=O)CC2)ccc1Nc1ncc(Cl)c(Nc2ccc(N3CCN(C(C)=O)CC3)cc2OC)n1  4.11 µM (active)
1  COCCNCc1ccc(-c2cc3nccc(Oc4ccc(NC(=S)NC(=O)Cc5ccc(F)cc5)cc4F)c3s2)nc1  6.51 µM (active)

Prompt: Which measured Potency belongs to Cc1cc(CS(=O)(=O)c2ccccc2)cc(OCc2ccc(CN3CCC[C@@H]3CO)cc2)c1 , tested on NIH3T3?
Response: 20.6 µM (active)

Prompt: Now consider CC1(CO)CCCC2(C)C1C(OC(=O)c1ccccc1)C=C1C(=O)OCC12O (centres undefined) and answer again.
Response: 12.8 µM (active)

Prompt: Now consider Nc1nc(NCC2CCC(CNS(=O)(=O)c3cccc4ccccc34)CC2)nc2ccccc12 (centres undefined) and answer again.
Response: 20.6 µM (active)

Prompt: Now consider Cc1cc(N=Nc2ccc(S(=O)(=O)Nc3ccccn3)cc2)c(N)cc1O and answer again.
Response: 8.2 µM (active)

Prompt: Now consider Cc1cc(C)c(-c2csc(NC(=O)c3ccccc3)n2)c(C)c1 and answer again.
Response: 8.2 µM (active)

Prompt: Now consider C=C(C)C(=O)O[C@H]1[C@H]2C(=C)C(=O)O[C@@H]2C[C@@H](C)/C=C\C(=O)[C@](C)(O)[C@@H]1OC(C)=O and answer again.
Response: 7.09 µM (active)

Prompt: Now consider CCN1CCN(Cc2ccc(-c3cc4c(NC(C)c5ccccc5)ncnc4[nH]3)cc2)CC1 (centres undefined) and answer again.
Response: 8.2 µM (active)

---

experimental-target: Atrial natriuretic peptide receptor 1 (Homo sapiens)
method: Natriuretic polypeptide receptor (hNpr1) antagonism - Pilot CMLD screen (AID 1347052);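 further: cGMP level read as GloSensor luciferase luminescence after agonist stimulation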
condition-notes: HEK293 hNpr1 GloSensor cGMP luminescence, ANP-stimulated; series mostly up to 9.22 µM
Records with an inconclusive call do not appear. Active and inactive are the calls of the source. The call rests on the fitted dose curve.
measurement-name: outcome

Known results for compounds:
>>> df
                                   compound  measurement_name  observed_result
0  COc1ccc2c(c1)O[C@@H](c1cccc(C(F)(F)F)c1)[C@H](OC(=O)NC1CCCC1)C2=O           outcome         inactive
1  CC1(OC(=O)C2CCCC2)C(=O)C=C2C=C(c3ccsc3)OC=C2C1=O (centres undefined)           outcome         inactive
2      Cc1ccccc1Nc1oc(-c2ccccc2)nc1-c1cccs1           outcome         inactive
3  C=CCOC(=O)NC(CC(=Nc1ccc(OC)cc1)C(=O)OC)c1ccccc1 (centres undefined)           outcome         inactive
4  CCCC[C@@H]1CN2[C@@H](CC[C@H](C)[C@@H]2c2ccc(Br)cc2)C(=O)O1           outcome         inactive
5  CC1=C[C@]2(O[C@H](COc3ccccc3)C1)C(=O)N(C)c1ccccc12           outcome         inactive
6    CC(C)=NO[C@@H](C)CN1CCCc2nc(C)c(C)cc21           outcome         inactive
7  O=C1N(Cc2ccc(Br)cc2)c2cccc(Br)c2[C@@]12O[C@H](COc1ccccc1)CC1=CCCC12 (some centres undefined)           outcome         inactive
8  CCN1C(=O)[C@@H]2[C@H]3[C@H](O)[C@H](O)CC(=NO[C@H](C)c4cn([C@H](CO)Cc5ccccc5)nn4)[C@@H]3CC[C@H]2C1=O           outcome         inactive
9  COc1ccc2c(c1)O[C@@H](c1ccc3c(c1)OCO3)[C@H](OC(=O)Nc1ccc(C)c(Br)c1)C2=O           outcome         inactive

Prompt: Can you share its outcome? I mean this compound: COC(=O)[C@H](COC(C)(C)C)NC(=O)O[C@@H]1C(=O)c2ccc(OC)cc2O[C@H]1c1ccc2c(c1)OCO2
Response: inactive

---

method: qHTS for Inhibitors of Plasmodium falciparum (HB3) proliferation (AID 504318); further: nearly all actives have a fitted effect of over 60% in size
condition-notes: P. falciparum HB3 in erythrocytes, SYBR Green DNA, 72 h; series mostly up to 7.21 µM
Inconclusive results are not listed. Calls of active or inactive are those of the source. Calls come from the whole dose curve; as a rule, active = well fitted inhibition curve with a large enough effect; inconclusive = small, poorly fitted or top-dose-only effect; inactive = flat fitted curve, though single readings scatter.
Form entry, call: pick from active, inactive

Sample answers from the record:
>>> print(df.to_string())
                                   compound  class_assignment
0  C=C(C(C)=O)C(O)c1cccc(OC)c1 (stereo unspecified)          inactive
1  CC1(OC(=O)C2CCCC2)C(=O)C=C2C=C(c3ccsc3)N(C(CO)CO)C=C2C1=O (stereo unspecified)          inactive
2  CCOC(=O)CN1C(=O)NC(c2ccc(Br)cc2)C(C(C)=O)=C1C (stereo unspecified)          inactive
3     Cc1ccccc1Nc1oc(-c2ccccc2)nc1-c1ccccc1            active
4     COC(=O)N[C@H](CC(C)=O)c1ccc2c(c1)OCO2          inactive

Prompt: What classification did CC#CCN1C(=O)NC(c2ccccc2)C(C#N)=C1C (stereo unspecified) end up with in this test?
Response: inactive

---

System: C33A
method: Primary qHTS to identify gynecologic anti-cancer compounds using libraries of approved drugs and bioactive compounds (AID 1345084); further: nearly all actives have a fitted effect of over 55% in size
condition-notes: Gynecologic cancer cell panel viability, ATPlite luminescence, 48 h; series mostly up to 57.5 µM
Results filed as inconclusive are left out. Active and inactive are the calls of the source. Calls come from the whole dose curve; as a rule, active = well fitted cell-killing curve with a large enough effect; inconclusive = small, poorly fitted or top-dose-only effect, or effect the other way; inactive = flat fitted curve, though single readings scatter.
Form entry, call: pick from True (active), False (inactive)

Sample answers from the record:
>>> print(df.to_string())
                                   compound  class_assignment
0  C=C1C(=O)O[C@@H]2CC(C)=C([C@@H](C)CCCO)[C@@H](OC(=O)C(C)C)[C@H]12             False
1          CC1=CC(=O)[C@@]2(C(C)C)C[C@@H]12             False
2  CC/C(=C(\c1ccc(O)cc1)c1ccc(OCCNC)cc1)c1ccccc1             False
3  Cc1ccc(C(=O)N2CCN(c3ccc([N+](=O)[O-])cc3)CC2)cc1Cl             False
4  CCCCn1c(-c2ccccc2)nc(-c2ccccc2)c1CN(Cc1ccc2c(c1)OCO2)Cc1ccc2c(c1)OCO2             False

Prompt: What classification did CC(=O)Nc1nc2c(Oc3cc(-c4ccc(C(F)(F)F)cc4)ncn3)cccc2s1 end up with in this test?
Response: False

Prompt: Now consider CCC(C)n1cc(C)c2c(C(=O)NCc3c(C)cc(C)[nH]c3=O)cc(-c3ccc(N4CCNCC4)nc3)cc21 (stereo not drawn) and answer again.
Response: False

---

method: qHTS for Inhibitors of Plasmodium falciparum (HB3) proliferation (AID 504318); further: nearly all actives have a fitted effect of over 60% in size
condition-notes: P. falciparum HB3 in erythrocytes, SYBR Green DNA, 72 h; series mostly up to 7.21 µM
Records with an inconclusive call do not appear. Activity calls are given as the source filed them. The call rests on the fitted dose curve; in most records, active means well fitted inhibition curve with a large enough effect; inconclusive means small, poorly fitted or top-dose-only effect; inactive means flat fitted curve, though single readings scatter.
Form entry, call: pick from yes (active), no (inactive)

Sample answers from the record:
>>> df
                                   molecule  class_assignment
0  O=C1[C@@H]2[C@H]3[C@H](O)[C@H](O)CC(=NOC[C@@H](O)COCc4ccco4)[C@@H]3CC[C@H]2C(=O)N1C[C@@H]1CCCO1                no
1  C#CCN1C(=O)CC[C@@]23C1=NC(C(=O)OC)=C(C(=O)OC)[C@@H]2N(CC=C(C)C)c1ccccc13                no
2  COCCN1C(=O)NC(c2ccc(Br)cc2)C(C(C)=O)=C1C (stereo not drawn)                no

Prompt: What classification did C=CCOC(=O)C(C(=O)CC)[C@@H](NC(=O)OC)c1ccc(F)cc1 (stereo partly drawn) end up with in this test?
Response: no

Prompt: Now consider Cc1ccc2[nH]c3nc(CCCn4ccnc4-c4ccccc4)nnc3c2c1 and answer again.
Response: no

Prompt: Now consider OC[C@H]1O[C@H](C#Cc2ccccc2)C=C[C@@H]1O and answer again.
Response: no

---

method: Redox Reaction Profiling qHTS: Assay Interference Panel against the NCATS CANVASS Library (AID 1347401)
condition-notes: resazurin-DTT redox cycling, fluorescence, 15 min; series mostly up to 57.1 µM
Inconclusive results are not listed. Active and inactive are the calls of the source. The call rests on the fitted dose curve; in most records, active means well fitted activation curve with a large enough effect; inconclusive means small, poorly fitted or top-dose-only effect; inactive means no such curve, though single readings can be large or run the other way.
Form entry, call: pick from label 1 = active, label 0 = inactive

compound	class-assignment
COc1cc(O)c2c3c(c(O)cc(C)c13)C(=O)OC2	label 1
O=c1cc(-c2ccc(O)c(O[C@@H]3O[C@H](CO)[C@@H](O)[C@H](O)[C@H]3O)c2)oc2cc(O[C@@H]3O[C@H](CO)[C@@H](O)[C@H](O)[C@H]3O)cc(O)c12	label 0
C[C@@]12CCC[C@@](C)(C(=O)O)[C@H]1C[C@@H](O)[C@]13C[C@H]4C[C@H](O[C@@]4(C)C1)[C@@H]23	label 0

Prompt: What classification did CS/C=C/C(N)=O end up with in this test?
Response: label 0

Prompt: Now consider CCCCCCCCC[C@@H]1C[C@@H]2CC[C@H]3[C@@H](C(=O)OCCCCN=C(N)N)[C@@H](C)N=C(N1)N23 and answer again.
Response: label 0

Prompt: Now consider C=CC(=C)CC[C@]1(C)[C@H]2C[C@H](OC(=O)C(C)CC)C=C3[C@H](OC(C)=O)O[C@H](OC(C)=O)[C@@]32[C@H](OC)C[C@@H]1C (stereo partly drawn) and answer again.
Response: label 0

Prompt: Now consider CN1CC[C@]2(c3cccc4c3N[C@@H]3N(C)CC[C@]43[C@@]34CCN(C)[C@@H]3Nc3ccccc34)c3ccccc3N[C@H]12 and answer again.
Response: label 0

Prompt: Now consider C=C1C(=O)C[C@H]2C[C@@H]1[C@]2(C)CCC=C(C)C and answer again.
Response: label 0
